Molecular target: HLA-A*0203 (human)
Assay: competition with 125I probe peptide for purified HLA, gel filtration
pIC50: −log10 of the molar value.

Binder: ILSVSSFLFV (modifications not checked) [1167.18]
pIC50: 7.72
//
Binder: FMKAVCVEV (modifications not checked) [1167.16]
pIC50: 8.54
